The following substances are listed with their measured MIC values.
tested on: Escherichia coli; test: Antimicrobial activity against Escherichia coli ATCC 25922 assessed as reduction in microbial growth; assay type: functional
measurement_label: MIC (µg/mL)

[[record]]
substance = "H-KLLKRKLLVLLR-OH"
measurement_label = "MIC"
unit_name = "µg/mL"
test_result = 12.5

[[record]]
substance = "H-KLLKHKLLVTLA-OH"
measurement_label = "MIC"
unit_name = "µg/mL"
test_result = 50

[[record]]
substance = "H-KLLKRKLLVTLR-OH"
measurement_label = "MIC"
unit_name = "µg/mL"
test_result = 25

[[record]]
substance = "H-KKLLRLLKVLLR-OH"
measurement_label = "MIC"
unit_name = "µg/mL"
test_result = 1.5

[[record]]
substance = "H-KLLKHKLLVTLR-OH"
measurement_label = "MIC"
unit_name = "µg/mL"
test_result = 50

[[record]]
substance = "H-KKLLKKLLRLLKVLLR-OH"
measurement_label = "MIC"
unit_name = "µg/mL"
test_result = 25


----------
tested on: Candida albicans; test: Antimicrobial activity against Candida albicans ATCC 90029 assessed as reduction in microbial growth; assay type: functional
The following substances are listed with their measured MIC values.
measurement_label: MIC

[[record]]
substance = "H-KLLKHKLLVTLR-OH"
measurement_label = "MIC"
test_result = "> 200 µg/mL"

[[record]]
substance = "H-KKLLRLLKVLLR-OH"
measurement_label = "MIC"
test_result = "50 µg/mL"

[[record]]
substance = "H-KLLKHKLLVTLA-OH"
measurement_label = "MIC"
test_result = "> 200 µg/mL"

[[record]]
substance = "H-KLLKRKLLVLLR-OH"
measurement_label = "MIC"
test_result = "> 200 µg/mL"

[[record]]
substance = "H-KKLLKKLLRLLKVLLR-OH"
measurement_label = "MIC"
test_result = "3 µg/mL"

[[record]]
substance = "H-KLLKRKLLVTLR-OH"
measurement_label = "MIC"
test_result = "> 200 µg/mL"


----------
The following substances are listed with their measured remaining at 1 h values.
assay: Stability in human serum assessed as compound remaining measured after 1 hr by RP-HPLC analysis; format: ADME, cell-free; conditions: read-out: Stability
measurement_label: remaining at 1 h

[[record]]
substance = "H-KKLLRLLKVLLR-OH"
measurement_label = "remaining at 1 h"
test_result = "60%"

[[record]]
substance = "H-KKLLKKLLRLLKVLLR-OH"
measurement_label = "remaining at 1 h"
test_result = "60%"

